- test-target: human placental GnRH receptor (human) (UniProt P30968)
- assay-explanation: homologous radioreceptor assay, average of three human term placental membrane preparations
Non-standard residues stand in square brackets, D forms with d. pGlu = O=C1CC[C@@H](C(=O)O)N1; azaGly = NNC(=O)O
observation-type: Kd (nM)
One number for each entry, in nM.

Record request: Kd value, item [pGlu]HWSH[dR]WYP[azaGly]-NH2 (also: also used radioiodinated as label) [D-Arg(6)-chicken II GnRH-aza-Gly(10)-amide]
93
